Hello, the source for this data is the Human Domainome abundance scans (Beltran et al. 2025), in case you need it.

B1: Double-stranded RNA-binding protein Staufen homolog 1, residues 183 to 249; numbered along this chain, O95793 (parent)
chain: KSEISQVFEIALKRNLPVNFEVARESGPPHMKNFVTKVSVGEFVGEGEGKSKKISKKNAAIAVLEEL

Variants of: B1
EXPERIMENT_DESCRIPTION: abundance fitness (aPCA) (normalised: wild type 0, dead -1); higher = more abundant; growth selection in yeast, the domain comes from the species named
PROTOCOL_CONDITIONS: Homo sapiens
Kindly return Criterion met if reported abundance fitness is no lower than -0.4; return Criterion not met if it is lower.

> print(dat)
                                         seq        group.label
 1  KSEISQVFEIALKRLLPVNFEVARESGPPHMKNFVTKVSVGEFVGEGEGKSKKISKKNAAIAVLEEL  Criterion not met
 2  KSEISQVFEIALKRNLPVNFEVARESGPPHMKNFVTKVSVGEFVGEGEGKSKKISKKNAFIAVLEEL      Criterion met
 3  KSEISQVFEIALKRNLPVNFEVARESGPPHMKNFVTKVSVGEFVGEGVGKSKKISKKNAAIAVLEEL      Criterion met
 4  KSEISQVFEIALKRNLPVNFEVARESGPPHMKNFVTKVSVGEFVGEGEGKSVKISKKNAAIAVLEEL      Criterion met
 5  KSEISQVFEIALKRDLPVNFEVARESGPPHMKNFVTKVSVGEFVGEGEGKSKKISKKNAAIAVLEEL      Criterion met
 6  KSEISQVFEIACKRNLPVNFEVARESGPPHMKNFVTKVSVGEFVGEGEGKSKKISKKNAAIAVLEEL      Criterion met
 7  KSEISQVFEIALKRNLPVNFEVARESGPPVMKNFVTKVSVGEFVGEGEGKSKKISKKNAAIAVLEEL      Criterion met
 8  KSEISQVFEIALKRNLPVNFEVARESGPPHMKNFVTKVSVGGFVGEGEGKSKKISKKNAAIAVLEEL      Criterion met
 9  KSEISQVFEIALKRNLPVNFEVARESGPPHMKNFVTKVSVGEFVGEGEGQSKKISKKNAAIAVLEEL      Criterion met
10  KSCISQVFEIALKRNLPVNFEVARESGPPHMKNFVTKVSVGEFVGEGEGKSKKISKKNAAIAVLEEL      Criterion met
11  KSEISQGFEIALKRNLPVNFEVARESGPPHMKNFVTKVSVGEFVGEGEGKSKKISKKNAAIAVLEEL  Criterion not met
12  KSEISQVFEIALERNLPVNFEVARESGPPHMKNFVTKVSVGEFVGEGEGKSKKISKKNAAIAVLEEL      Criterion met
13  KSEISQWFEIALKRNLPVNFEVARESGPPHMKNFVTKVSVGEFVGEGEGKSKKISKKNAAIAVLEEL  Criterion not met
14  KSEISQVFEIALKRNLPVNFEVARESGPPHMKNFVTKVSVGEFVGEGEGKSKKISKKTAAIAVLEEL  Criterion not met
15  KSEISQVFEIALKRNLPVNFEVARESGPPHMKNFVTKVSVGEFVGEGEGKSKKISKKNAAIAVLPEL      Criterion met
16  KSEISQVFEIALKRNLPVNFEVARESGPPHMKNIVTKVSVGEFVGEGEGKSKKISKKNAAIAVLEEL      Criterion met
17  KSEISQVFEIALKRNLPVNFEVARESGPPHMKKFVTKVSVGEFVGEGEGKSKKISKKNAAIAVLEEL      Criterion met
18  LSEISQVFEIALKRNLPVNFEVARESGPPHMKNFVTKVSVGEFVGEGEGKSKKISKKNAAIAVLEEL      Criterion met
19  KSAISQVFEIALKRNLPVNFEVARESGPPHMKNFVTKVSVGEFVGEGEGKSKKISKKNAAIAVLEEL      Criterion met
20  KSEISQVFDIALKRNLPVNFEVARESGPPHMKNFVTKVSVGEFVGEGEGKSKKISKKNAAIAVLEEL      Criterion met
21  KSEISQVFEIALKRNLPVNFEVARESGPPHMKNFVTKVSVGEFVGEGEGKSKKISKKNAAWAVLEEL  Criterion not met
22  KSEISQVFEIALKRNLPVNFEVARESGPPHMKNFVTKVSVGEFVGEGEGKSSKISKKNAAIAVLEEL  Criterion not met
23  KSEISQVFEIALKRNLPVNFEVARESGPPHMKNFVTKVSVGEFVMEGEGKSKKISKKNAAIAVLEEL  Criterion not met
24  KSEISQVFEIALKRNLPVNFEVARESGPPHMKNFVTKVSVGEFVGEGEGKSKKISKKNAAIAVLLEL  Criterion not met
25  KSEISQVFEIALKRNCPVNFEVARESGPPHMKNFVTKVSVGEFVGEGEGKSKKISKKNAAIAVLEEL  Criterion not met
26  KSEISQVFEIALKRNLPVNFEVARESGPPHMKNFVTKVSVLEFVGEGEGKSKKISKKNAAIAVLEEL  Criterion not met
27  KSEISQVFEIALKRNLKVNFEVARESGPPHMKNFVTKVSVGEFVGEGEGKSKKISKKNAAIAVLEEL      Criterion met
28  KSEISQVFEISLKRNLPVNFEVARESGPPHMKNFVTKVSVGEFVGEGEGKSKKISKKNAAIAVLEEL      Criterion met
29  KSEISQVFEIALKRNLPVNFEVARESGPPWMKNFVTKVSVGEFVGEGEGKSKKISKKNAAIAVLEEL      Criterion met
30  KSEISQVFEIALKRNLPVNFEVARESGPPHMKNFVTKVSVGEFVGEGEGKSCKISKKNAAIAVLEEL  Criterion not met
31  KSEISQVFEIALKRNLPVNFEVARESGPPHMKNFVTKVSVGEFVGEGEGKSKKISKKNAAIAHLEEL  Criterion not met
32  KSEISQVFEIALKRNLPVNFEVARESGPPHMKNFVTKVHVGEFVGEGEGKSKKISKKNAAIAVLEEL      Criterion met
33  KSEISQVFEIALKRNLPVNFEVARESGPPHMKNFVTKVSDGEFVGEGEGKSKKISKKNAAIAVLEEL  Criterion not met
34  KSEISQVFEIALKRNLPVNFEVARESGPPHMKNFVTKVSVGEFVGEGEGKSKKISKKNAQIAVLEEL  Criterion not met
35  KSEISQVFEIAHKRNLPVNFEVARESGPPHMKNFVTKVSVGEFVGEGEGKSKKISKKNAAIAVLEEL      Criterion met
36  KSEISQVFRIALKRNLPVNFEVARESGPPHMKNFVTKVSVGEFVGEGEGKSKKISKKNAAIAVLEEL      Criterion met
37  KSEISQVFEIALKRSLPVNFEVARESGPPHMKNFVTKVSVGEFVGEGEGKSKKISKKNAAIAVLEEL      Criterion met
38  KSMISQVFEIALKRNLPVNFEVARESGPPHMKNFVTKVSVGEFVGEGEGKSKKISKKNAAIAVLEEL  Criterion not met
39  KSEISQVFEIALKRNLPVNFEVARESGPPHMKNFVTKVSVGEFVGAGEGKSKKISKKNAAIAVLEEL      Criterion met
40  KSEISQVFEIALKRNLPVNFEVARESGPPHMKNFVTKVSVGEFVGEGEGKSKKISKKNAAIAVPEEL  Criterion not met
41  KSEISQVFEIALKRNLPVNFEVARESGPPHMKNFVTKVSVGEFVGEGTGKSKKISKKNAAIAVLEEL      Criterion met
42  KSEISQVFEIALKRNLPVNFEVARESGPPHMKNFVTKVSVGCFVGEGEGKSKKISKKNAAIAVLEEL      Criterion met
43  KSEISQVFEIALKRNLPVNFEVARESGPPHMKNFVDKVSVGEFVGEGEGKSKKISKKNAAIAVLEEL  Criterion not met
44  KSEISQVFEIALKRNLPVNFEVARESGPPHMKNFVTKVSVGEFVGEQEGKSKKISKKNAAIAVLEEL  Criterion not met
45  KSEISQVFEIALKRNLPVNFEVARESGPPHMKNFVTKVSVGEFVGEGEGKSKKISKKNFAIAVLEEL  Criterion not met
